# assaySystem: full-length human GLP-1R with an N-terminal FLAG tag, overexpressed on HEK-293T cells (human, UniProt P43220 24-463)
# runDescription: cell-based or functional assay
Non-standard residues stand in square brackets, D forms with d. Groups on a side chain read outwards from the residue. No end group written: not given here. *: point of attachment. C18 diacid = O=C(O)CCCCCCCCCCCCCCCCC(=O)*; NMeY = CN[C@@H](Cc1ccc(O)cc1)C(=O)O; AEEA = NCCOCCOCC(=O)O; Aib = CC(C)(N)C(=O)O
Human GLP1R cAMP EC50, HEK293T overview
Put down the number, then write its unit next to it.

[[record]]
binder = "YXEGTFISDYSIALDRXHQXNFVNELLKQXPSSGAPPPS (N-terminal Me (Me-Tyr 1); Aib at 2, 17, 20; E* at 25 and K* at 28 (mark * as printed, not explained); Km at 30 = Lys(2OEGgE-C18DA); C-terminus NH2) [Compound No. 185]"
assaymetric = "Human GLP1R cAMP EC50, HEK293T"
measurement = "1000 nM"

[[record]]
binder = "YXEGTFISDYSIAXDRIAQRNFVEWLLAQSPSSGAPPPS (N-terminal Me (Me-Tyr 1); Aib at 2; Km at 14 = Lys(G5-C18DA); C-terminus OH) [Compound No. 179]"
assaymetric = "Human GLP1R cAMP EC50, HEK293T"
measurement = "2.88 nM"


# context switch: different binder, same Human GLP1R cAMP EC50, HEK293T
**Query** Any idea what its Human GLP1R cAMP EC50, HEK293T is? The binder is [NMeY][Aib]EGTFISDYSI[Aib]LDR[Aib]AQ[Aib]K([AEEA-AEEA-C18 diacid])FVNWLLAQRG-OH [Compound No. 219]
**Result** 17.4 nM
